Entries annotated with measured IC50
STUDY TARGET: Tyrosinase (Agaricus bisporus)
Sequence (O42713 whole entry): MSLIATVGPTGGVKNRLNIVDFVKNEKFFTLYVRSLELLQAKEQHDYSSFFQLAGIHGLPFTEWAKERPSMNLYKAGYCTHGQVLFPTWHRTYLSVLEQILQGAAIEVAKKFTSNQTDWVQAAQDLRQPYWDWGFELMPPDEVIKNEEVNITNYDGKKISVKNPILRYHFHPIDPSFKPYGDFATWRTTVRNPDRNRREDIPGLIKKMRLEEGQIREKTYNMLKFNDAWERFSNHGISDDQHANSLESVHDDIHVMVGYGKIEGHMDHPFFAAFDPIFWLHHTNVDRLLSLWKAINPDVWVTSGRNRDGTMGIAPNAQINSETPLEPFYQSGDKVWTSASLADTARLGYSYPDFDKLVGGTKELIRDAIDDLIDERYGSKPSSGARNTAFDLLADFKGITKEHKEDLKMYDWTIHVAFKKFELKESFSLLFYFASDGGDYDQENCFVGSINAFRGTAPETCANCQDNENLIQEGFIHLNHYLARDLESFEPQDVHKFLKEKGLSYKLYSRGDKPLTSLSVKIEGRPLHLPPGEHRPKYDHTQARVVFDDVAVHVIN
RUN DESCRIPTION: Inhibition of diphenolase activity of mushroom tyrosinase using as L-DOPA substrate
Hi! Could you send only the number? It should be in µM, unit omitted.

{"MOLECULE": "C=CC(C)(C)c1cc(CCCc2cc(O)c(O)c(CC3OC3(C)C)c2CC=C(C)C)c(O)cc1O (stereo unspecified)", "UNITS OF MEASURE": "µM", "TEST VALUE": 26.9}
{"MOLECULE": "CC(C)=CCc1c(CCCc2ccc(O)cc2O)cc(O)c(O)c1CC=C(C)C", "UNITS OF MEASURE": "µM", "TEST VALUE": 1.7}
{"MOLECULE": "C=CC(C)(C)c1cc(CCCc2cc(O)c(O)c(CC=C(C)C)c2CC=C(C)C)c(O)cc1O", "UNITS OF MEASURE": "µM", "TEST VALUE": 22.8}

Okay, next one:
Which IC50 reading was recorded for the molecule CC(C)=CCc1cc(CCCc2ccc(O)cc2O)ccc1O ? 0.57

FYI, the data here is from ChEMBL document CHEMBL1139318.
